Origin of values: patent US9387221B2

- Tested on: biotinylated human D-SDF-1
- Assay Name: Competitive pull-down binding assay
- Applied Conditions: aptamer level; reference 192-A10-001
Measured Parameter: binding affinity in competitive pull-down binding assay vs. 192-A10-001

>  <Sequence Text>
AGCGUGGUGUGAUCUAGAUGUAGUGGCUGAUCCUAGUCAGGUACGCU (chemistry not fully specified) [193-C2-001]

>  <Reported>
superior binding

$$$$
>  <Sequence Text>
GCUAUGAAAGUAACAUGUCAAUGAAAGGUAACCAUAGC (aptamer; Made as D-RNA aptamer and L-RNA Spiegelmer, tested form not given here, further chemistry not given here) [192-H11]

>  <Reported>
Weaker binding affinity

$$$$
>  <Sequence Text>
AGCGUGGUGUGAUCUAGAUGUAUUGGCUGAUCCUAGUCAGGUACGCU (chemistry not fully specified) [193-G2-001]

>  <Reported>
superior binding

$$$$
>  <Sequence Text>
AGCGUGAAAGUAACACGUAAAAUGAAAGGUAACCACGCU (Made as D-RNA aptamer and L-RNA Spiegelmer, tested form not given here, further chemistry not given here) [191-A6]

>  <Reported>
Weaker binding affinity

$$$$

Asked: // binding affinity in competitive pull-down binding assay vs. 192-A10-001 lookup, key: AGCGUGGUGUGAUCUAGAUGUAAUGGCUGAUCCUAGUCAGGUGCGCU (chemistry not fully specified) [193-F2-001]
Given back: superior binding

====

- Study System: human SDF-1α (Homo sapiens)
- Sequence (P48061 22-89): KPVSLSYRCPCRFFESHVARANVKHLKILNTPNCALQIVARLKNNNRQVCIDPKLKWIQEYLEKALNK
- Assay Name: Surface plasmon resonance measurement (Biacore 2000)
- Format: binding
- Applied Conditions: Spiegelmer (L-RNA), 37° C.
{PEG40k} = 40 kDa polyethylene glycol
Measured Parameter: Kd (nM)
Numbers only, in nM.

Answered cases to consult:
>  <Substance>
GAGAUAGGGGUUAGGGCUUAAAGUCGGCUGAUUCUC (aptamer; Made as D-RNA aptamer and L-RNA Spiegelmer, tested form not given here, further chemistry not given here) [190-A3-004]

>  <Measured Parameter>
Kd

>  <Readout Unit>
nM

>  <Reported>
4.7

$$$$
>  <Substance>
AGCGUGGCGAGGUUAGGGCUAGAAGUCGGUCGACACGCU (Made as D-RNA aptamer and L-RNA Spiegelmer, tested form not given here, further chemistry not given here) [191-D5-001]

>  <Measured Parameter>
Kd

>  <Readout Unit>
nM

>  <Reported>
0.8

$$$$
>  <Substance>
CGGGAGGUUAGGGCUAGAAGUCGGUCCCG (chemistry not fully specified) [191-D5-007]

>  <Measured Parameter>
Kd

>  <Readout Unit>
nM

>  <Reported>
0.8

$$$$
>  <Substance>
GUGCUGCGGGGGUUAGGGCUAGAAGUCGGCCUGCAGCAC (aptamer; chemistry not fully specified) [197-B2]

>  <Measured Parameter>
Kd

>  <Readout Unit>
nM

>  <Reported>
0.9

$$$$

Lab note: next substance to report on.
Asked: // Kd lookup, key: 5′-40 kDa-PEG-GCGUGGUGUGAUCUAGAUGUAUUGGCUGAUCCUAGUCAGGUACGC (5' {PEG40k}, sugars by position and backbone not given here) [NOX-A12]
Given back: 0.2

====

- Test system: biotinylated human D-SDF-1
- Assay Name: Competitive pull-down binding assay
- Applied Conditions: reference 191-D5-007
Measured Parameter: binding affinity in competitive pull-down binding assay vs. 191-D5-007

>  <Sequence Text>
CCCGGGUUAGGGCUAGAAGUCGGCGGG (chemistry not fully specified) [191-D5-029]

>  <Reported>
reduced binding affinity

$$$$
>  <Sequence Text>
GGCGGGUUAGGGCUAGAAGUCGGCGCC (chemistry not fully specified) [191-D5-024]

>  <Reported>
reduced binding affinity

$$$$
>  <Sequence Text>
CCGCGGUUAGGGCUAGAAGUCGGGCGG (chemistry not given here) [191-D5-017]

>  <Reported>
reduced binding affinity

$$$$
